The measured values listed here are drawn from patent US20240009175A9.

# Test system: CHO-K1 cells
# assay_notes: Micronucleus assay (MNT) in vitro
# Format: cell-based
# Design: key: A: negative, putative negative (micronuclei detected beyond threshold of 60% cyctotoxicity); B: positive
# condition_info: 24 hrs treatment, 0.2 μM to 100 μM
property: MNT

- compound: "CCc1c(C(O)(c2ccccc2)c2ccccc2)nn2cc(F)c(-c3nnn[nH]3)cc12"
  test_value: "A"
- compound: "CCc1c(C(O)(c2ccccc2)c2ccccn2)nc2cc(Cl)c(-c3nnn[nH]3)cn12 (single isomer, unassigned) [Compound 7]"
  test_value: "A"
- compound: "CCc1c(C(O)(c2ccccc2)c2ccccc2)nn2cc(Cl)c(-c3nnn[nH]3)cc12"
  test_value: "A"
- compound: "CCn1c(C(O)(c2ccccc2)c2ccccc2)nc2ncc(-c3nnn[nH]3)cc21"
  test_value: "A"

---

# Test system: CHO-K1 cells
# assay_notes: Micronucleus assay (MNT) in vitro
# Format: cell-based
# Design: key: A: negative, putative negative (micronuclei detected beyond threshold of 60% cyctotoxicity); B: positive
# condition_info: 24 hrs treatment, 0.2 μM to 100 μM

- molecule: "CCn1c(C(O)(c2ccccc2)c2cccnn2)nc2nc(OC)c(-c3nnn[nH]3)cc21 (stereo not drawn)"
  MNT: "A"
- molecule: "CCc1c(C(O)(c2ccccc2)c2ccccn2)nc2cc(OC)c(-c3nnn[nH]3)cn12 (single isomer, unassigned) [Compound 11]"
  MNT: "A"
- molecule: "CCn1c(C(O)(c2ccccc2)c2ccccc2)nc2ccc(C(=O)NC[C@@H](C)O)cc21 [Reference Compound, reference compound]"
  MNT: "B"

---

So I've got a bunch of compounds here, and I need their IC50 values.
# experimental_target: human rec ACSS2 (Homo sapiens (Human))
# Sequence (Q9NR19 whole entry): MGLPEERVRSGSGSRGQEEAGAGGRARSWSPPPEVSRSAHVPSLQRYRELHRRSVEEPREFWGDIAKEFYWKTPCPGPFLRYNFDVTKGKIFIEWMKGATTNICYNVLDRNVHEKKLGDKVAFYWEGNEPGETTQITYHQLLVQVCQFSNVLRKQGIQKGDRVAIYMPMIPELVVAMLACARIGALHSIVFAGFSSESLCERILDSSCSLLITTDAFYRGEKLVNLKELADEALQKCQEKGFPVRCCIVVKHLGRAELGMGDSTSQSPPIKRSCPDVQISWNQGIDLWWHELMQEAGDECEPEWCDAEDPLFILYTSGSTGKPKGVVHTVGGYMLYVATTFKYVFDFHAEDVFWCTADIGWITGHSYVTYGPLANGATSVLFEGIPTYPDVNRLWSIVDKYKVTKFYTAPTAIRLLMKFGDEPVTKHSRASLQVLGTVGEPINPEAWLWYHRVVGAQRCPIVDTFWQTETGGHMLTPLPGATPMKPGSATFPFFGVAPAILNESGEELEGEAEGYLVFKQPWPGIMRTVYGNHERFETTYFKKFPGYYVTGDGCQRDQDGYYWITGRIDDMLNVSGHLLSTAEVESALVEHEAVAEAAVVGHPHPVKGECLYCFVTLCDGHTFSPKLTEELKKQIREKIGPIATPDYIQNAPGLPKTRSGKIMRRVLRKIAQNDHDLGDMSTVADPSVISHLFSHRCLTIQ
# assay_notes: Biochemical activity ACSS2 assay (AMP-Glo)
# condition_info: human recombinant ACSS2, AMP-Glo, 180 min at 37° C.

Provide IC50 values for the following items, in order.
1. CCn1c(C(O)(c2ccccc2)c2ncccn2)nc2nc(OC)c(-c3nnn[nH]3)cc21 (racemic) [Compound 37]
2. COc1nc2nc(C(O)(c3ccccc3)c3ccccc3)n(C)c2cc1-c1nnn[nH]1 [Compound 24]
3. CCn1c(C(O)(c2ccccc2)c2ccccc2)nc2ncc(-c3nnn[nH]3)cc21 [Compound 60]
4. CCc1c(C(O)(c2ccccc2)c2ccn(C)n2)nc2cc(OC)c(-c3nnn[nH]3)cn12 (single isomer, unassigned) [Compound 18]

**Result**
["1 to 10 nM", "0.01 to 1 nM", "10 to 100 nM", "10 to 100 nM"]

---

# experimental_target: UniProt Q9NR19
# assay_notes: Cellular assay of 14C acetate incorporation into fatty acids (IC50 ACSS2 cellular lipids)
# Type: cell-based
# condition_info: HCT-15 cells
pIC50: −log10 of the molar value.
So I've got a bunch of compounds here, and I need their pIC50 values.

Provide pIC50 values for the following items, in order.
1. CCn1c(C(O)(c2ccccc2)c2ccccn2)nc2nc(OC)c(-c3nnn[nH]3)cc21 (single isomer, unassigned) [Compound 40]
2. CCc1c(C(O)(c2ccccc2)c2ccccn2)nc2cc(OC)c(-c3nnn[nH]3)cn12 (single isomer, unassigned)
3. CCn1c(C(O)(c2ccccc2)c2ccccn2)nc2nc(OC)c(-c3nnn[nH]3)cc21 (racemic) [Compound 50]

**Result**
1: 8.00 to 9.00; 2: 8.00 to 9.00; 3: 9.00 to 11.00

Provide pIC50 values for the following items, in order.
1. CCc1c(C(O)(c2ccccc2)c2ccccc2)nn2cc(OC)c(-c3nnn[nH]3)cc12
2. CCn1c(C(O)(c2cccs2)c2cccs2)nc2nc(OC)c(-c3nnn[nH]3)cc21
3. CCc1c(C(O)(c2ccccc2)c2ccccc2)nc2cc(Cl)c(-c3nnn[nH]3)cn12
4. CCc1c(C(O)(c2ccccc2F)c2ccccc2F)nc2cc(OC)c(-c3nnn[nH]3)cn12
5. CCc1c(C(O)(c2ccccc2)c2ccccc2)nc2cc(OC)c(-c3nnn[nH]3)cn12
6. CCn1c(C(O)(c2ccccc2)c2ccccc2)nc2nc(C)c(-c3nnn[nH]3)cc21

**Result**
["8.00 to 9.00", "7.00 to 8.00", "8.00 to 9.00", "8.00 to 9.00", "8.00 to 9.00", "5.00 to 7.00"]

Provide pIC50 values for the following items, in order.
1. CCn1c(C(O)(c2ccccc2)c2ncccn2)nc2nc(OC)c(-c3nnn[nH]3)cc21 (racemic)
2. CCc1c(C(O)(c2ccccc2)c2ccccc2)nn2cc(Cl)c(-c3nnn[nH]3)cc12
3. CCn1c(C(O)(c2ccccc2)c2ccccc2)nc2nc(Cl)c(-c3nnn[nH]3)cc21
4. CCc1c(C(O)(c2ccccc2F)c2ccccc2F)nc2cc(Cl)c(-c3nnn[nH]3)cn12
5. CCn1c(C(O)(c2ccccc2)c2ccccc2)nc2nc(F)c(-c3nnn[nH]3)cc21
6. CCn1c(C(O)(c2ccccc2)c2cccs2)nc2nc(OC)c(-c3nnn[nH]3)cc21 (racemic)

**Result**
1. 8.00 to 9.00
2. 8.00 to 9.00
3. 7.00 to 8.00
4. 7.00 to 8.00
5. 8.00 to 9.00
6. 9.00 to 11.00
